Source of measurements: patent US9765105B2

Reported values of MIC values, Actinobacillus pleuropneumoniae CVCC262 for individual entries
Test system: Actinobacillus pleuropneumoniae CVCC262
experimentalProtocol: in vitro susceptibility, MIC by mini broth dilution
Type: cell-based
conditionParameters: strain CVCC262
Write the numeric value and append its unit.

Test system Actinobacillus pleuropneumoniae CVCC262; read-out MIC values, Actinobacillus pleuropneumoniae CVCC262; what value for CCCN1C[C@H](C)[C@@H](O)[C@](C)(O)[C@@H](CC)OC(=O)[C@H](C)[C@@H](O[C@H]2C[C@@](C)(OC)[C@](O)(CNCCOC)[C@H](C)O2)[C@H](C)[C@@H](O[C@@H]2O[C@H](C)C[C@H](N(C)C)[C@H]2O)[C@](C)(O)C[C@H]1C [syzx-125] ?
0.5 ug/mi

More entries:
Query for Actinobacillus pleuropneumoniae CVCC262: what MIC values, Actinobacillus pleuropneumoniae CVCC262 does the record show for CCCN1C[C@H](C)[C@@H](O)[C@](C)(O)[C@@H](CC)OC(=O)[C@H](C)[C@@H](O[C@H]2C[C@@](C)(OC)[C@](O)(CNc3ccc(Cl)nn3)[C@H](C)O2)[C@H](C)[C@@H](O[C@@H]2O[C@H](C)C[C@H](N(C)C)[C@H]2O)[C@](C)(O)C[C@H]1C [syzx-132] ?
0.5 ug/mi

Which MIC values, Actinobacillus pleuropneumoniae CVCC262 is reported with Actinobacillus pleuropneumoniae CVCC262 for this entry: CCCN1C[C@H](C)[C@@H](O)[C@](C)(O)[C@@H](CC)OC(=O)[C@H](C)[C@@H](O[C@H]2C[C@@](C)(OC)[C@](O)(CNCc3ccc(C(F)(F)F)cc3)[C@H](C)O2)[C@H](C)[C@@H](O[C@@H]2O[C@H](C)C[C@H](N(C)C)[C@H]2O)[C@](C)(O)C[C@H]1C [syzx-116] ?
0.25 ug/mi

Find the measured MIC values, Actinobacillus pleuropneumoniae CVCC262: item CC[C@H]1OC(=O)[C@H](C)[C@@H](O[C@H]2C[C@@](C)(OC)[C@](O)(Cn3cccc3)[C@H](C)O2)[C@H](C)[C@@H](O[C@@H]2O[C@H](C)C[C@H](N(C)C)[C@H]2O)[C@](C)(O)C[C@@H](C)NC[C@H](C)[C@@H](O)[C@]1(C)O [syzx-7] , target or system Actinobacillus pleuropneumoniae CVCC262.
2 ug/mi

What is its MIC values, Actinobacillus pleuropneumoniae CVCC262 for Actinobacillus pleuropneumoniae CVCC262? Entry: CCCN1C[C@H](C)[C@@H](O)[C@](C)(O)[C@@H](CC)OC(=O)[C@H](C)[C@@H](O[C@H]2C[C@@](C)(OC)[C@@H](O)[C@H](C)O2)[C@H](C)[C@@H](O[C@@H]2O[C@H](C)C[C@H](N(C)C)[C@H]2O)[C@](C)(O)C[C@H]1C [Gamithromycin, reference compound]
0.25 ug/mi

What measured MIC values, Actinobacillus pleuropneumoniae CVCC262 is associated with CCCCCNC[C@]1(O)[C@H](C)O[C@@H](O[C@H]2[C@H](C)[C@@H](O[C@@H]3O[C@H](C)C[C@H](N(C)C)[C@H]3O)[C@](C)(O)C[C@@H](C)N(CCC)C[C@H](C)[C@@H](O)[C@](C)(O)[C@@H](CC)OC(=O)[C@@H]2C)C[C@@]1(C)OC [syzx-147] on Actinobacillus pleuropneumoniae CVCC262?
0.25 ug/mi

* * *

Test system: Actinobacillus pleuropneumoniae CVCC262
experimentalProtocol: in vitro susceptibility, MIC by mini broth dilution
Format: cell-based
conditionParameters: strain CVCC262
assayEndpoint: MIC values, Actinobacillus pleuropneumoniae CVCC262 (ug/mi)
A number alone suffices; assume ug/mi.

Reference set, count: 3
Consider the molecule CCCN1C[C@H](C)[C@@H](O)[C@](C)(O)[C@@H](CC)OC(=O)[C@H](C)[C@@H](O[C@H]2C[C@@](C)(OC)[C@](O)(CNCCCC(OC)OC)[C@H](C)O2)[C@H](C)[C@@H](O[C@@H]2O[C@H](C)C[C@H](N(C)C)[C@H]2O)[C@](C)(O)C[C@H]1C [syzx-205] and give its measured MIC values, Actinobacillus pleuropneumoniae CVCC262.
4

# lookup: MIC values, Actinobacillus pleuropneumoniae CVCC262 of CCCN1C[C@H](C)[C@@H](O)[C@](C)(O)[C@@H](CC)OC(=O)[C@H](C)[C@@H](O[C@H]2C[C@@](C)(OC)[C@](O)(CNC(C)(C)C)[C@H](C)O2)[C@H](C)[C@@H](O[C@@H]2O[C@H](C)C[C@H](N(C)C)[C@H]2O)[C@](C)(O)C[C@H]1C [syzx-1 14]
0.25

Return reported MIC values, Actinobacillus pleuropneumoniae CVCC262; argument: CCCCN(C)C[C@]1(O)[C@H](C)O[C@@H](O[C@H]2[C@H](C)[C@@H](O[C@@H]3O[C@H](C)C[C@H](N(C)C)[C@H]3O)[C@](C)(O)C[C@@H](C)N(CCC)C[C@H](C)[C@@H](O)[C@](C)(O)[C@@H](CC)OC(=O)[C@@H]2C)C[C@@]1(C)OC [syzx-198]
0.5

Others:
Quick check: MIC values, Actinobacillus pleuropneumoniae CVCC262 of CCCN1C[C@H](C)[C@@H](O)[C@](C)(O)[C@@H](CC)OC(=O)[C@H](C)[C@@H](O[C@H]2C[C@@](C)(OC)[C@](O)(CNCCCN3CCOCC3)[C@H](C)O2)[C@H](C)[C@@H](O[C@@H]2O[C@H](C)C[C@H](N(C)C)[C@H]2O)[C@](C)(O)C[C@H]1C [syzx-169] ?
0.25

I'd like to know its MIC values, Actinobacillus pleuropneumoniae CVCC262. The molecule in question is CCCN1C[C@H](C)[C@@H](O)[C@](C)(O)[C@@H](CC)OC(=O)[C@H](C)[C@@H](O[C@H]2C[C@@](C)(OC)[C@](O)(CNCC3CC3)[C@H](C)O2)[C@H](C)[C@@H](O[C@@H]2O[C@H](C)C[C@H](N(C)C)[C@H]2O)[C@](C)(O)C[C@H]1C [syzx-117]
0.25

# input molecule: CCCN1C[C@H](C)[C@@H](O)[C@](C)(O)[C@@H](CC)OC(=O)[C@H](C)[C@@H](O[C@H]2C[C@@](C)(OC)[C@](O)(CNCc3ccc(F)c(F)c3)[C@H](C)O2)[C@H](C)[C@@H](O[C@@H]2O[C@H](C)C[C@H](N(C)C)[C@H]2O)[C@](C)(O)C[C@H]1C [syzx-154] ; wanted: its MIC values, Actinobacillus pleuropneumoniae CVCC262
0.25

Data request, read-out MIC values, Actinobacillus pleuropneumoniae CVCC262, for CC[C@H]1OC(=O)[C@H](C)[C@@H](O[C@H]2C[C@@](C)(OC)[C@](O)(CNCCCNCCc3ccc(S(C)(=O)=O)cc3)[C@H](C)O2)[C@H](C)[C@@H](O[C@@H]2O[C@H](C)C[C@H](N(C)C)[C@H]2O)[C@](C)(O)C[C@@H](C)NC[C@H](C)[C@@H](O)[C@]1(C)O [Syzx-61]
32

Entry CCCNC[C@]1(O)[C@H](C)O[C@@H](O[C@H]2[C@H](C)[C@@H](O[C@@H]3O[C@H](C)C[C@H](N(C)C)[C@H]3O)[C@](C)(O)C[C@@H](C)CN[C@H](C)[C@@H](O)[C@](C)(O)[C@@H](CC)OC(=O)[C@@H]2C)C[C@@]1(C)OC [Tulathromycin, reference compound] : reported MIC values, Actinobacillus pleuropneumoniae CVCC262 = ?
0.25

* * *

Test system: Haemophilus parasuis
experimentalProtocol: in vitro susceptibility, MIC by mini broth dilution
Assay type: cell-based
assayEndpoint: MIC values, Haemophilus parasuis (ug/mi)
Field format: number, assumed ug/mi, no unit text.

Please give the measured MIC values, Haemophilus parasuis for this molecule: CCCN1C[C@H](C)[C@@H](O)[C@](C)(O)[C@@H](CC)OC(=O)[C@H](C)[C@@H](O[C@H]2C[C@@](C)(OC)[C@](O)(CNCc3ccccc3F)[C@H](C)O2)[C@H](C)[C@@H](O[C@@H]2O[C@H](C)C[C@H](N(C)C)[C@H]2O)[C@](C)(O)C[C@H]1C [syzx-192]
4

Returns the measured MIC values, Haemophilus parasuis for the input molecule. Input: CCCN1C[C@H](C)[C@@H](O)[C@](C)(O)[C@@H](CC)OC(=O)[C@H](C)[C@@H](O[C@H]2C[C@@](C)(OC)[C@](O)(CNc3ccc(Cl)nn3)[C@H](C)O2)[C@H](C)[C@@H](O[C@@H]2O[C@H](C)C[C@H](N(C)C)[C@H]2O)[C@](C)(O)C[C@H]1C [syzx-132]
0.5

Next:
// lookup MIC values, Haemophilus parasuis for CCCN1C[C@H](C)[C@@H](O)[C@](C)(O)[C@@H](CC)OC(=O)[C@H](C)[C@@H](O[C@H]2C[C@@](C)(OC)[C@](O)(CNCc3ccc(C(F)(F)F)cc3)[C@H](C)O2)[C@H](C)[C@@H](O[C@@H]2O[C@H](C)C[C@H](N(C)C)[C@H]2O)[C@](C)(O)C[C@H]1C [syzx-116]
0.25

Given the molecule CCCN1C[C@H](C)[C@@H](O)[C@](C)(O)[C@@H](CC)OC(=O)[C@H](C)[C@@H](O[C@H]2C[C@@](C)(OC)[C@](O)(CN3CCCC3)[C@H](C)O2)[C@H](C)[C@@H](O[C@@H]2O[C@H](C)C[C@H](N(C)C)[C@H]2O)[C@](C)(O)C[C@H]1C [syzx-209] , what is its reported MIC values, Haemophilus parasuis?
0.25
